Each record here notes measured Kp.
test: Ratio of AUC (0 to 1.5 hrs) in C57BL/6J mouse pancreas to plasma at 10 mg/kg, po administered as single dose by LC/MS/MS analysis; assay type: ADME, organism-based; details: pancreas and plasma, read-out: Ratio AUC
property name: Kp

compound=CCN(CC(=O)O)CC(=O)N1CCC[C@H]1c1cc(C(=O)Nc2ncc(F)s2)c(C)s1 endpoint_result=0.064
compound="CS(=O)(=O)c1ccc([C@@H](C[C@H]2CCC(=O)C2)C(=O)Nc2cnccn2)cc1Cl [PIRAGLIATIN]" endpoint_result=1.8

* * *

molecular target: hERG (KCNH2) (Homo sapiens); test: Inhibition of [3H]-dofetilide binding to human ERG expressed in HEK293 cell membranes at 30 uM after 1 hr by scintillation proximity assay relative to control; conditions: HEK293 cell membranes that express hERG, probe [3H]-dofetilide
Sequence (Q12809 whole entry): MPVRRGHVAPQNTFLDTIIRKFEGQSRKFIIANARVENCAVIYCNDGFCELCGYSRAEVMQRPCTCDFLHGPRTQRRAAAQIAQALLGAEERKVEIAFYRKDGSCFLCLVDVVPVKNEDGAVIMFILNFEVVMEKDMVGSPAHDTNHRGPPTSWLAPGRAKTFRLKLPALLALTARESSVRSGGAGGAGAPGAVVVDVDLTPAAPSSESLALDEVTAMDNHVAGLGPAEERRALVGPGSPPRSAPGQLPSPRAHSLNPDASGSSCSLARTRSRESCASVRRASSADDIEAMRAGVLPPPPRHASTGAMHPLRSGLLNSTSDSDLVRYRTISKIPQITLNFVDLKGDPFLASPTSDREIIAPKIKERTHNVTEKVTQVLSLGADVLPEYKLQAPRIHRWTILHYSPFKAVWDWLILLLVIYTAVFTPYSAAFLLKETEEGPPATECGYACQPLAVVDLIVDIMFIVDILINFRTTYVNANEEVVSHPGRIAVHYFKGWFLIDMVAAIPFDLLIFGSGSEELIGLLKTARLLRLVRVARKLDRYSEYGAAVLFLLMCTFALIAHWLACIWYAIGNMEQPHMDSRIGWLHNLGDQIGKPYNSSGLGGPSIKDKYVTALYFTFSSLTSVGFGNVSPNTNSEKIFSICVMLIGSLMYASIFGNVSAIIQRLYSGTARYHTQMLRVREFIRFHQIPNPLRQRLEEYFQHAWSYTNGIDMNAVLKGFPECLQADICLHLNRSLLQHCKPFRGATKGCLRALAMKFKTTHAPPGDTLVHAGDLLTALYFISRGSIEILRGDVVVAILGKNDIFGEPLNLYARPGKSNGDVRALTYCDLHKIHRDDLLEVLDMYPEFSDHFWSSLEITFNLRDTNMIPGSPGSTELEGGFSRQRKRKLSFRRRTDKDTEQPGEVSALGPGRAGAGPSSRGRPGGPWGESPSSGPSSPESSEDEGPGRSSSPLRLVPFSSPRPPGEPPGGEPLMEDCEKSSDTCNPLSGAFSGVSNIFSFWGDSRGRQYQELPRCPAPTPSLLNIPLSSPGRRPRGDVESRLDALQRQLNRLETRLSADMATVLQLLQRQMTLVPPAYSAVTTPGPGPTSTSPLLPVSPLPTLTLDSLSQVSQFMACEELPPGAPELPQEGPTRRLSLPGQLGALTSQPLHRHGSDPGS
Each record here notes measured inhibition at 1 h, 30 µM.
property name: inhibition at 1 h, 30 µM (%)

compound=Cc1sc([C@@H]2CCCN2C(=O)CN(C)C)cc1C(=O)Nc1ncc(Cl)s1.Cl property_name="inhibition at 1 h, 30 µM" result_units=% endpoint_result=101
compound="Cc1sc(C2CCCN2C(=O)CNCC(=O)O)cc1C(=O)Nc1ncc(Cl)s1 (centres undefined)" property_name="inhibition at 1 h, 30 µM" result_units=% endpoint_result=28
compound="Cc1sc(C2CCCN2C(=O)CN(C)CC(=O)O)cc1C(=O)Nc1ncc(F)s1 (centres undefined)" property_name="inhibition at 1 h, 30 µM" result_units=% endpoint_result=-6
compound=Cc1sc([C@@H]2CCCN2C(=O)CN(C)CCC(=O)O)cc1C(=O)Nc1ncc(F)s1 property_name="inhibition at 1 h, 30 µM" result_units=% endpoint_result=49
compound="Cc1sc(C2CCCN2C(=O)CN(C)CCCCC(=O)O)cc1C(=O)Nc1ncc(F)s1 (centres undefined)" property_name="inhibition at 1 h, 30 µM" result_units=% endpoint_result=77
compound=Cc1sc([C@@H]2CCCN2C(=O)[C@H](C)N(C)CC(=O)O)cc1C(=O)Nc1ncc(F)s1 property_name="inhibition at 1 h, 30 µM" result_units=% endpoint_result=4
compound=CCN(CC(=O)O)CC(=O)N1CCC[C@H]1c1cc(C(=O)Nc2ncc(F)s2)c(C)s1 property_name="inhibition at 1 h, 30 µM" result_units=% endpoint_result=-1
compound="Cc1sc(C2CCCN2C(=O)CNS(C)(=O)=O)cc1C(=O)Nc1ncc(Cl)s1 (centres undefined)" property_name="inhibition at 1 h, 30 µM" result_units=% endpoint_result=16
compound="Cc1sc(C2CCCN2C(=O)CN(C)CCCC(=O)O)cc1C(=O)Nc1ncc(F)s1 (centres undefined)" property_name="inhibition at 1 h, 30 µM" result_units=% endpoint_result=78

* * *

experiment: AUC (0 to 1.5 hrs) in C57BL/6J mouse plasma at 5 mg/kg, po administered as single dose by LC/MS/MS analysis; type: ADME, organism-based; parameters: time < 1.5 hr, dose 5 mg/kg, route oral
property name: AUC(0-t) at 1.5 h (ng·h/mL)

chemical_smiles=CS(=O)(=O)c1ccc([C@@H](C[C@H]2CCC(=O)C2)C(=O)Nc2cnccn2)cc1Cl property_name="AUC(0-t) at 1.5 h" endpoint_result=351

* * *

Each record here notes measured fold change (FC).
Molecular target: Hexokinase-4 (Homo sapiens)
Sequence (whole entry): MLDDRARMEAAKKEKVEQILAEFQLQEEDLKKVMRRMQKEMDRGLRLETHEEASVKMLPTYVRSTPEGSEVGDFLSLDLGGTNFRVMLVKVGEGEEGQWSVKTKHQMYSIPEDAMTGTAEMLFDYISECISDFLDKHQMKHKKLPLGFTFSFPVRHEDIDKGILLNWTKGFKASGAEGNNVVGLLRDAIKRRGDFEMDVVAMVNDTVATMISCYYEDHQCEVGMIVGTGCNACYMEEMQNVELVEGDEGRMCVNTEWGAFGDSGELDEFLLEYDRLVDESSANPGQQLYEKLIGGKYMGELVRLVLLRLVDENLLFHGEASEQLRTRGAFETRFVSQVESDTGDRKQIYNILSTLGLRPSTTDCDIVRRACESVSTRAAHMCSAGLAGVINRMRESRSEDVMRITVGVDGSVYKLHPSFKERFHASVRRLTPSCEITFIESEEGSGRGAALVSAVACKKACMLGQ
Assay: Activation of human glucokinase assessed as conversion of D-glucose to D-glucose-6-phosphate at 10 uM preincubated for 10 mins followed by 5 mM glucose addition measured for 5 mins at 30 secs time interval by G6PDH/NADP coupled assay relative to control
property name: fold change (FC)

compound="Cc1sc(C2CCCN2C(=O)CN(C)C)cc1C(=O)Nc1ncc(Cl)s1 (configuration not stated)" endpoint_result=6.81
compound=Cc1sc([C@@H]2CCCN2C(=O)CN(C)CCC(=O)O)cc1C(=O)Nc1ncc(F)s1 endpoint_result=7.26
compound=Cc1sc(N2CCCC2=O)cc1C(=O)Nc1nc2c(s1)CCC2 endpoint_result=2.41
compound="Cc1sc(C2CCCN2C(=O)CN(C)CC(=O)O)cc1C(=O)Nc1ncc(Cl)s1.Cl (configuration not stated)" endpoint_result=8.35
compound=Cc1sc(-c2ccccc2C(=O)NCCC(N)=O)cc1C(=O)Nc1nc2c(s1)CCC2 endpoint_result=2.56
compound=Cc1sc(-c2ccccc2C(N)=O)cc1C(=O)Nc1nc2c(s1)CCC2 endpoint_result=6.23
compound=Cc1sc([C@@H]2CCCN2C(=O)[C@H](C)N(C)CC(=O)O)cc1C(=O)Nc1ncc(F)s1 endpoint_result=8.8
compound=CCN(CC(=O)O)CC(=O)N1CCC[C@H]1c1cc(C(=O)Nc2ncc(F)s2)c(C)s1 endpoint_result=8.6
compound=Cc1sc([C@H]2CCCN2C(=O)CN(C)C)cc1C(=O)Nc1ncc(Cl)s1.Cl endpoint_result=4.99
compound="CC(=O)N(C)CC(=O)N1CCCC1c1cc(C(=O)Nc2ncc(Cl)s2)c(C)s1 (configuration not stated)" endpoint_result=2.57
compound=Cc1sc(-c2ccccc2C(=O)NCCO)cc1C(=O)Nc1nc2c(s1)CCC2 endpoint_result=3.89
compound=Cc1sc(N2CCCCC2=O)cc1C(=O)Nc1nc2c(s1)CCC2 endpoint_result=2.96
compound="Cc1sc(C2CCCN2C(=O)CN(C)S(C)(=O)=O)cc1C(=O)Nc1ncc(Cl)s1 (configuration not stated)" endpoint_result=3.24
compound="Cc1sc(C2CCCN2C(=O)CCN)cc1C(=O)Nc1nccs1 (configuration not stated)" endpoint_result=2.86
compound="Cc1sc(C2CCCN2C(=O)CN(C)CCCC(=O)O)cc1C(=O)Nc1ncc(F)s1 (configuration not stated)" endpoint_result=6.86
compound="CC(=O)NCC(=O)N1CCCC1c1cc(C(=O)Nc2ncc(Cl)s2)c(C)s1 (configuration not stated)" endpoint_result=5.32
compound="Cc1sc(C2CCCN2C(=O)CN(C)CCC(=O)O)cc1C(=O)Nc1ncc(F)s1.Cl (configuration not stated)" endpoint_result=4.89
